Origin of the recorded values: the supplement of paper PMC3334620

Target: Gcr1 (UniProt P07261)
Sequence: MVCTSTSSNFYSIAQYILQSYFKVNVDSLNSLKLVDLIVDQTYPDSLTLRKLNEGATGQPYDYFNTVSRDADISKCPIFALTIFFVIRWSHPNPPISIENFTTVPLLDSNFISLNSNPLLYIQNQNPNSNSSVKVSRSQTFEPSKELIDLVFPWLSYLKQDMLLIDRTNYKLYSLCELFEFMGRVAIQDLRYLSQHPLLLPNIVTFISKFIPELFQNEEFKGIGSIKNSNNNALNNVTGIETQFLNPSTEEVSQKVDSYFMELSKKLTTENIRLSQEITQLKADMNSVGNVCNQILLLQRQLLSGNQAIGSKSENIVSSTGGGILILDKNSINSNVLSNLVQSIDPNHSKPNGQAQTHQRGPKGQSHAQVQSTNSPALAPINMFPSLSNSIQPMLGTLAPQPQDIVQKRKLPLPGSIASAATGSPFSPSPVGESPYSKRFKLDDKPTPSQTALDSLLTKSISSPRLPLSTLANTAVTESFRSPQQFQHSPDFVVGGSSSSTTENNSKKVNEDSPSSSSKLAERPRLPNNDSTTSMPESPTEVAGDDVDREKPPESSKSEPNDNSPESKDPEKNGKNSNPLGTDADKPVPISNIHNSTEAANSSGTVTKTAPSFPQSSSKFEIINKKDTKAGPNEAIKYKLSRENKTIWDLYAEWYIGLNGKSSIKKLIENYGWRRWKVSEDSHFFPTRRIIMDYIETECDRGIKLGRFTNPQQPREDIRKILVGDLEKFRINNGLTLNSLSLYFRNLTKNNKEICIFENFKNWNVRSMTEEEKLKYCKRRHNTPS
Assay name: PBM E-score (8-mer binding enrichment) (E-score (-0.5 to 0.5)); higher = stronger / more preferred TF binding
Recorded conditions: protein concentration: 100 nM; construct: GST-full length
In all, about 33,000 sequences were measured (“E-score (-0.5 to 0.5)”: median about -0.011, highest 2% from about 0.28 on). The entries come from a sample that favours the highest values as a whole.
Rule: met for PBM E-score not less than -0.05, not met for anything less.

> print(dat)
   biosequence                 target  assigned.category
1     CCTGCTCA  Gcr1 (UniProt P07261)            not met
2     ATGGAACG  Gcr1 (UniProt P07261)                met
3     AACTAGTT  Gcr1 (UniProt P07261)                met
4     CTGGAACA  Gcr1 (UniProt P07261)                met
5     AACGCTCC  Gcr1 (UniProt P07261)            not met
